As shown below, each of these compounds has a reported pIC50 value.
biological target: hMAO-A (Homo sapiens); assay: hMAO-A inhibitory activity (kynuramine, spectrophotometric); format: biochemical; conditions: Table S3, mean ± SD, highest concentration 10 µM; read-out: IC50 hMAO-A
Sequence (P21397 whole entry): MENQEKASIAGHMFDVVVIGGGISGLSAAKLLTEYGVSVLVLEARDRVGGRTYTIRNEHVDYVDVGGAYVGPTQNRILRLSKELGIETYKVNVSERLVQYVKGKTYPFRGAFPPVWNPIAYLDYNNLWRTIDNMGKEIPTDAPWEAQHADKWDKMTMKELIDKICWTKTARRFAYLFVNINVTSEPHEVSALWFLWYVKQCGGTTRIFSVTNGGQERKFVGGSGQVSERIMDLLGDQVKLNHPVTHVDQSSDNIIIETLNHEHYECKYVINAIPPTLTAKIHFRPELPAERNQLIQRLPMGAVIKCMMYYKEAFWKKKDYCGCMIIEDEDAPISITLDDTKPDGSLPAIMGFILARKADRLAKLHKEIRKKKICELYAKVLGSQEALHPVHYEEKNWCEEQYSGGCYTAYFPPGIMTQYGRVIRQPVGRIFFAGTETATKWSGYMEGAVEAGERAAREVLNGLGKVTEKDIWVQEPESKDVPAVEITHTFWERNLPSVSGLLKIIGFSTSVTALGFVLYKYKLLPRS
pIC50: −log10 of the molar value.
reported.property: pIC50

INSERT INTO assay_data (compound, reported_property, measured_result) VALUES
  ('C#CCNC1CCc2nc(N)sc2C1 (stereo not shown)', 'pIC50', '< 5.00'),
  ('C#CCNCc1ccc2nc(N)sc2c1', 'pIC50', '< 5.00'),
  ('C#CCNc1nc2c(s1)CC(N(CC#C)C(C)=O)CC2 (stereo not shown)', 'pIC50', '< 5.00'),
  ('C#CCN(CC#C)Cc1ccc2nc(N)sc2c1', 'pIC50', '< 5.00');
